Biological target: T1, human GIP receptor (human, UniProt P48546 22-466)
T1 sequence (looked up): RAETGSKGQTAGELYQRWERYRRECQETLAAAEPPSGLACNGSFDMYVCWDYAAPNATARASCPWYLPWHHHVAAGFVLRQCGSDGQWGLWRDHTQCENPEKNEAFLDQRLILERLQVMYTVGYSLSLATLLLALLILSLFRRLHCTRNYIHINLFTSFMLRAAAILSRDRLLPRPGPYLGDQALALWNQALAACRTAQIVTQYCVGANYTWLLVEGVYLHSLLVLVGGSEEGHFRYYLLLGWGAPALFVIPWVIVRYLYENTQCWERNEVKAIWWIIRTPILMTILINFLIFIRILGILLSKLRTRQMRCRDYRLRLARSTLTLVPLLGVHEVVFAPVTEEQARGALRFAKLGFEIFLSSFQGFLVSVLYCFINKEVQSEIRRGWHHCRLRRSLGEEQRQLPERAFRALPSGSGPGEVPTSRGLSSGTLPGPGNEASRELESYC
Assay: cell-based or functional assay
Please note: EC50 CreLuc hGIPR 100% hP exactly at 0.8 nM is not met. Only values below 0.8 nM get met.

Exercise: Determine if YXEGTFTSDYSIXLEKQAQXAFVEWLIKGGPRSGASLRHYYNWLTRQRY (Aib at 2, 13, 20; K28 side chain: C20DA-gGlu-gGlu-gGlu-gGlu-gGlu-gGlu-eLys; C-terminal NH2) [Compound 168] shows EC50 CreLuc hGIPR 100% hP strictly lower than 0.8 nM.
Solution: not met

Exercise: And the next one, YXEGTFTSDYSIXLEKQAQXAFVQWLIKGGPSEPASLRHYYNWLTRQRY (Aib at 2, 13, 20; K28 side chain: C20DA-gGlu-gGlu-gGlu-gGlu-gGlu-OEG-OEG; C-terminal NH2) [Compound 111] ?
Solution: not met

Exercise: And the next one, YXEGTFTSDYSIXLEKQAQXAFVQWLIKGGPSEGVSLRHYYNWLTRQRY (Aib at 2, 13, 20; K28 side chain: C20DA-gGlu-gGlu-gGlu-gGlu-gGlu-gGlu-eLys; C-terminal NH2) [Compound 114] ?
Solution: not met

Every entry's value here was drawn from patent US20240247080A1.
